For each record, write down the corresponding inhibition.
assay.info: yeast transport mutant growth inhibition pilot in 384-well plates, post-Golgi transport modulator project (AID 636); note: test concentration not given here
condition.set: absorbance 615 nm, about 18 h, active compounds read high
Please reply with the bare figure in % and do not write the unit itself.

State the recorded inhibition for this entry: O=C(NCCN1CCOCC1)c1ccc2c(c1)N(Cc1ccccc1F)C(=O)CS2
-6.4

State the recorded inhibition for this entry: COC(=O)c1ccc(-c2nn(C)c(=O)c3ccccc23)cc1
-5.33

State the recorded inhibition for this entry: Cc1cc(C)nc(SCc2ccc3nonc3c2)n1
-6.53

State the recorded inhibition for this entry: O=C(Nc1ccncc1)c1cccc(F)c1
-3.08

State the recorded inhibition for this entry: C=CCSc1nnc(Cc2c(C)[nH]c3ccccc23)o1
-3.87

State the recorded inhibition for this entry: O=C(Cn1c(=O)sc2ccccc21)NCCOc1ccccc1F
-1.82

State the recorded inhibition for this entry: CC(C)c1ccc(C(O)c2cnc(C(C)C)n2C)cc1 (configuration not stated)
-4.13

State the recorded inhibition for this entry: COc1ccc(C2CC(c3cccs3)n3nc(N)nc3N2)cc1 (configuration not stated)
-2.4

State the recorded inhibition for this entry: CC1CCCCC1NC(=O)Cn1ncc2ccccc21 (configuration not stated)
-2.93

State the recorded inhibition for this entry: CCCCCn1c(=O)[nH]c2cc(C(=O)NCCCN3CCCCC3)ccc2c1=O
-6.76

State the recorded inhibition for this entry: CC1CCN(Cc2nc3c(c(=O)n(C)c(=O)n3C)n2Cc2cccc3ccccc23)CC1
-4

State the recorded inhibition for this entry: COc1cc(C(=O)N2CCN(c3cc(Cl)ccc3Cl)CC2)cc(OC)c1OC
-4.27
